experimental.target: T1, Human cKIT D1-5 (extracellular domain) (human, UniProt P10721 26-524)
T1 construct: also called human cKIT ECD; full-length cKIT ECD
T1 sequence (P10721 other isoform, or with tags, fused parts or gaps): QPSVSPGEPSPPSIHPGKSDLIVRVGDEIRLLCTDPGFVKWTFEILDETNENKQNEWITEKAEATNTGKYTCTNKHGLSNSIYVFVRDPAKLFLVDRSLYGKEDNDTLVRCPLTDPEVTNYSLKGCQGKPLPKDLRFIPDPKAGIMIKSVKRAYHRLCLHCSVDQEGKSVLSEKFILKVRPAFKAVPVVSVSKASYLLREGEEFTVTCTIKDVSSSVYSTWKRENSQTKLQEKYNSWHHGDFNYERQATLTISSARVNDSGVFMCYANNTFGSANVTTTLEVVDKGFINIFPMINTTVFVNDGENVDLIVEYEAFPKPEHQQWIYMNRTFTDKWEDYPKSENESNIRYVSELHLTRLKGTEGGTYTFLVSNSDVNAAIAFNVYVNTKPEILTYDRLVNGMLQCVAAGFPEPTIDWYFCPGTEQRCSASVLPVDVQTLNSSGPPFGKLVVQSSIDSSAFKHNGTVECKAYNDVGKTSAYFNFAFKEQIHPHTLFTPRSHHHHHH
assay.explanation: SET per the column head (Example 4 describes SPR, Biacore: antibody captured by anti-human Fc, cKIT ECD in solution)
measured.attribute: Kd (nM)

Anti-cKIT Ab1 (antibody, human IgG1, kappa, V domains shown, Full-length human IgG1, kappa light chain) VH: QVQLVQSGAEVKKPGSSVKVSCKASGGTFSSYAISWVRQAPGQGLEWMGVIFPAEGAPGYAQKFQGRVTITADESTSTAYMELSSLRSEDTAVYYCARGGYISDFDVWGQGTLVTVSS VL: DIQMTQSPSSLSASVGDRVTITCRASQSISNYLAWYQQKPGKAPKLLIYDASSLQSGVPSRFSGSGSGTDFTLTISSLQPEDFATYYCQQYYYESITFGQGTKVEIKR
0.094
Anti-cKIT Ab2 (antibody, human IgG1, kappa, V domains shown, Full-length human IgG1, kappa light chain) VH: QVQLVQSGAEVKKPGSSVKVSCKASGGTFSSHALSWVRQAPGQGLEWMGGIIPSFGTADYAQKFQGRVTITADESTSTAYMELSSLRSEDTAVYYCARGLYDFDYWGQGTLVTVSS VL: DIQMTQSPSSLSASVGDRVTITCRASQDISQDLAWYQQKPGKAPKLLIYDASSLQSGVPSRFSGSGSGTDFTLTISSLQPEDFAVYYCQQYYYLPSTFGQGTKVEIKR
0.007
Anti-cKIT Ab4 (antibody, human IgG1, lambda, V domains shown, Full-length human IgG1, lambda light chain) VH: QVQLQQSGPGLVKPSQTLSLTCAISGDSVSTNSAAWNWIRQSPSRGLEWLGRIYYRSQWLNDYAVSVKSRITINPDTSKNQFSLQLNSVTPEDTAVYYCARQLTYPYTVYHKALDVWGQGTLVTVSS VL: DIELTQPPSVSVSPGQTASITCSGDNLGDQYVSWYQQKPGQAPVLVIYDDTDRPSGIPERFSGSNSGNTATLTISGTQAEDEADYYCQSTDSKSVVFGGGTKLTVLG
2.4
Anti-cKIT Ab5 (antibody, human IgG1, lambda, V domains shown, Full-length human IgG1, lambda light chain) VH: QVQLVQSGAEVKKPGESLKISCKGSGYSFTNYWIAWVRQMPGKGLEWMGIIYPSNSYTLYSPSFQGQVTISADKSISTAYLQWSSLKASDTAMYYCARVPPGGSISYPAFDHWGQGTLVTVSS VL: DIELTQPPSVSVSPGQTASITCSGDNIGSIYASWYQQKPGQAPVLVIYRDNKRPSGIPERFSGSNSGNTATLTISGTQAEDEADYYCSVTDMEQHSVFGGGTKLTVLG
0.11

Provenance of the data: patent US20210228731A1
